- study_target: KRas^G13D (Homo sapiens, UniProt P01116, G13D)
- Construct: Biotinylated KRas (corresponding to amino acids 1-169, produced at Accelegan Inc.); biotin (biotinylated); purchased Accelegan Inc
- Sequence (P01116 1-169 isoform P01116-2 G13D): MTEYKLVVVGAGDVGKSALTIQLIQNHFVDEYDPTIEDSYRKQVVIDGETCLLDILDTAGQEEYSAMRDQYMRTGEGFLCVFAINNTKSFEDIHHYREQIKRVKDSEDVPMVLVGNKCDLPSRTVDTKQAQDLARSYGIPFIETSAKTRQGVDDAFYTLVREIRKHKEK
- test_protocol: KRas binding assay (TR-FRET tracer displacement), KRas G13D
- condition_details: single point, 10 nM compound, TR-FRET
measurement_label: inhibition at 0.01 µM (%)

# compound, inhibition at 0.01 µM [%]
data = [
    ("CCc1c(F)ccc2cc(O)cc(-c3ncc4c(N5CCCC6(CCS(=O)(=O)N6)C5)nc(OC[C@@]56CCCN5C[C@H](F)C6)nc4c3F)c12 (stereo partly shown) [Example 643]", 99),
    ("CCc1c(F)ccc2cc(O)cc(-c3ncc4c(N5CCCCC(C#N)C5)nc(OC[C@@]56CCCN5C[C@H](F)C6)nc4c3F)c12 (stereo partly shown) [Example 547]", 76),
    ("CCc1c(F)ccc2cc(O)cc(-c3ncc4c(N5CCC(O)c6nn(C(=O)N(C)C)cc6C5)nc(OC[C@@]56CCCN5C[C@H](F)C6)nc4c3F)c12 (stereo partly shown) [Example 674]", 92),
]

a. CCc1c(F)ccc2cc(O)cc(-c3ncc4c(N5CCCn6nc(C(=O)N(C)C)cc6C5)nc(OC[C@]56CCCN5[C@H](COC(=O)N(C)C)CC6)nc4c3F)c12 [Example 714]
b. CCc1cccc2cc3[nH]ncc3c(-c3ncc4c(N5C[C@@H]6C[C@H](C5)[C@H](O)C6)nc(OC[C@@]56CCCN5C[C@H](F)C6)nc4c3F)c12 [Example 767]
Parameter check: reported inhibition at 0.01 µM is higher for which label, a or b ? Answer by quoting the chosen item's label.
a
(a: 85%, b: 55%)

====

- study_target: KRas^G12S (Homo sapiens, UniProt P01116, G12S)
- Construct: Biotinylated KRas (corresponding to amino acids 1-169, produced at Accelegan Inc.); biotin (biotinylated); purchased Accelegan Inc
- Sequence (P01116 1-169 isoform P01116-2 G12S): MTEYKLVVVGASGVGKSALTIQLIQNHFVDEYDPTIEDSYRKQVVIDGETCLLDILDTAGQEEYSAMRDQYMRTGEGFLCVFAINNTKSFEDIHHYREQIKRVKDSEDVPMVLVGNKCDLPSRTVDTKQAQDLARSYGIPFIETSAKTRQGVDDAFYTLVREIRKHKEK
- test_protocol: KRas binding assay (TR-FRET tracer displacement), KRas G12S
- condition_details: TR-FRET tracer displacement, KRas G12S
measurement_label: IC50 (nM)

P. Cc1cc2[nH]ncc2c(-c2ncc3c(N4CCCC5(C4)NC(=O)NC5=O)nc(OCC45CCCN4CCC5)nc3c2F)c1C (stereo not drawn) [Example 728]
Q. Nc1nc2c(-c3ncc4c(N5CCCC6(C5)NC(=O)NC6=O)nc(OCC56CCCN5CCC6)nc4c3F)ccc(F)c2s1 (stereo not drawn) [Example 736]
Between P and Q , which one shows the larger IC50 value? Respond with the label that goes with your answer.
Q

====

- study_target: KRas^G12V (Homo sapiens, UniProt P01116, G12V)
- Construct: Biotinylated KRas (corresponding to amino acids 1-169, produced at Accelegan Inc.); biotin (biotinylated); purchased Accelegan Inc
- Sequence (P01116 1-169 isoform P01116-2 G12V): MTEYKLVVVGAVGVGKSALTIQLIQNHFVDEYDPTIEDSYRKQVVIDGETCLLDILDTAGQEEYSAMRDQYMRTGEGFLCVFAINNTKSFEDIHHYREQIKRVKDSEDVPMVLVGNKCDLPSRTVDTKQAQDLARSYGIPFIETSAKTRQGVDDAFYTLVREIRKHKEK
- test_protocol: KRas binding assay (TR-FRET tracer displacement), KRas G12V
measurement_label: IC50 (nM)

Some solved cases for reference:
# molecule, study_target, measurement_label, quantitative_readout
measured = [
    ("CCc1c(F)ccc2cc(O)cc(-c3ncc4c(N5CCCC(C6CCC(=O)N6)C5)nc(OC[C@@]56CCCN5C[C@H](F)C6)nc4c3F)c12 (stereo partly drawn)", "KRas^G12V (Homo sapiens, UniProt P01116, G12V)", "IC50", 248),
    ("CCc1c(F)ccc2cc(O)cc(-c3ncc4c(N5CCCn6nncc6C5)nc(OC[C@@]56CCCN5C[C@H](F)C6)nc4c3F)c12", "KRas^G12V (Homo sapiens, UniProt P01116, G12V)", "IC50", 3),
    ("CC1(O)COCCN(c2nc(OCC34CCCN3CCC4)nc3c(F)c(-c4cc(O)cc(Cl)c4C4CC4)ncc23)C1 (racemic)", "KRas^G12V (Homo sapiens, UniProt P01116, G12V)", "IC50", 5),
]

a. Cc1ccc2c(-c3ncc4c(N5C[C@@H]6C[C@H](C5)[C@H](O)C6)nc(OC[C@@]56CCCN5C[C@H](F)C6)nc4c3F)cc(O)cc2c1
b. CCc1c(F)ccc2cc(O)cc(-c3ncc4c(N5CC6CCC(CO)(C6)C5)nc(OC[C@@]56CCCN5C[C@H](F)C6)nc4c3F)c12 (stereo partly drawn)
Look at a and b . Which one has the lower recorded IC50 number? Use the label to indicate which entry you chose.
b
